Target: CXCR4 (Homo sapiens (Human))
Assay: Cellular impedance change induced by SDF-1a (cellular dielectric spectroscopy)
Assay type: cell-based
Settings: HeLa cells, endogenous CXCR4, EC50 concentration of SDF-1a, 30 minutes; read-out: Antagonist IC50
measurement type: pIC50
Give bare numbers, as −log10 of the molar value.

>>> reported_measurement("NCCCCN(Cc1nccc2c3ccccc3n(CCN3CCOCC3)c12)C1CCCc2cccnc21 (centres unmarked)")
8.11

Below are 4 molecules. Give each one its pIC50.
1. NCCCCN(Cc1nccc2c3ccccc3n(CC(=O)NC3CCNCC3)c12)C1CCCc2cccnc21 (centres unmarked) [drawing 814]
2. NCCCCN(Cc1nccc2c3ccccc3n(CC(N)=O)c12)C1CCCc2cccnc21 (centres unmarked)
3. O=C(O)Cn1c2ccccc2c2ccnc(CN(CCCN3CCNCC3)C3CCCc4cccnc43)c21 (centres unmarked)
4. C[C@@H]1CN(C(=O)Cn2c3ccccc3c3ccnc(CN(CCCCN)C4CCCc5cccnc54)c32)C[C@H](C)O1 (some centres unmarked)

7.92
8.24
7.59
8.00

====

Biological target: CXCR4 (Homo sapiens (Human), UniProt P61073)
Sequence (P61073 whole entry): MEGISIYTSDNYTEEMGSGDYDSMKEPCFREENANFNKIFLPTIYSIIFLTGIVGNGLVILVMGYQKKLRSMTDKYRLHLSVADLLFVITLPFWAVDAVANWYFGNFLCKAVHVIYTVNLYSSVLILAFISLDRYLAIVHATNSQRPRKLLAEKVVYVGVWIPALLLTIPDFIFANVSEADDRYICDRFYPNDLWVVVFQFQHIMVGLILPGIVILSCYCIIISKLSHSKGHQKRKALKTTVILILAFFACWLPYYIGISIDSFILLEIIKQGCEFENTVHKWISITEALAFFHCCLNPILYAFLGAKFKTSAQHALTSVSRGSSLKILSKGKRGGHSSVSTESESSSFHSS
Assay: Functional calcium mobilization assay (SDF-1α induced)
Assay type: cell-based
Conditions: CCRF-CEM, read-out: % inhibition at 1 μM
measurement type: inhibition at 1 µM (%)
Give bare numbers, in %.

Below are 2 molecules. Give each one its inhibition at 1 µM.
1. NCC#CCN(Cc1nccc2c1[nH]c1ccccc12)[C@H]1CCCc2cccnc21
2. CN(Cc1nccc2c1[nH]c1ccccc12)[C@H]1CCCc2cccnc21

[0, 0]

Below are 7 molecules. Give each one its inhibition at 1 µM.
1. CN(Cc1nccc2c3ccccc3n(Cc3cnn[nH]3)c12)[C@H]1CCCc2cccnc21
2. OCCCCN(Cc1nccc2c1[nH]c1ccccc12)[C@H]1CCCc2cccnc21
3. c1cnc2c(c1)CCCC2N(CCC1CCNCC1)Cc1nccc2c1[nH]c1ccccc12 (stereo not drawn)
4. NCCCCN(Cc1cn(Cc2ccccc2)nn1)C1CCCc2cccnc21 (stereo not drawn)
5. NC1CCN(C(=O)CN(Cc2nccc3c2[nH]c2ccccc23)[C@H]2CCCc3cccnc32)CC1
6. c1cnc2c(c1)CCCC2N(CCCCN(CC1CC1)CC1CC1)Cc1nccc2c1[nH]c1ccccc12 (stereo not drawn)
7. O=C(NNc1ccccc1)c1ccc(CN(Cc2nccc3c2[nH]c2ccccc23)[C@H]2CCCc3cccnc32)cc1

1: 0; 2: 0; 3: 55; 4: 45; 5: 0; 6: 0; 7: 0

====

Exercise: state measured inhibition at 1 µM for each of the molecules provided.
Molecular target: CXCR4 (Homo sapiens (Human), UniProt P61073)
Experiment: Functional calcium mobilization assay (SDF-1α induced)
Format: cell-based
Settings: CCRF-CEM, read-out: % inhibition at 1 μM
Form field: result (number plus unit)

The cases that follow already have their inhibition at 1 µM on record.
>>> reported_measurement("NC/C=C/CN(Cc1nccc2c1[nH]c1ccccc12)[C@H]1CCCc2cccnc21")
"20%"
>>> reported_measurement("c1cnc2c(c1)CCC[C@@H]2NCc1nccc2c1[nH]c1ccccc12")
"0%"

Below are 3 molecules. Give each one its inhibition at 1 µM.
1. NCCCCN(C(=O)c1nccc2c1[nH]c1ccccc12)C1CCCc2cccnc21 (centres unmarked)
2. c1cnc(NCCCCN(Cc2nccc3c2[nH]c2ccccc23)[C@H]2CCCc3cccnc32)nc1
3. CS(=O)(=O)N1CCC(CCN(Cc2nccc3c2[nH]c2ccccc23)C2CCCc3cccnc32)CC1 (centres unmarked)

0%
0%
5%
